Tested on: HL-60
Test method notes: NCI tumour cell line growth inhibition, 48 h
Activity calls are given as the source filed them. Rule as the data show it: active = GI50 up to about 1.1 µM and inactive = higher.
Just give me one of these, please: yes = active, no = inactive

Could you please tell me the result logged for CC(=O)C1C(=O)C(=O)N(c2cccc(C)c2C)C1=O (stereo not given) in this assay?
no

Just curious, what result did "C/N=C(\N=c1/ss/c(=N\C)n1C)N(C)C.[O-][Cl+3]([O-])([O-])O" get here?
no

For this compound, state the assay outcome: Cc1cc(OC2OC(CO)C(O)C(O)C2O)ccc1O (stereo not given)
no

Please state the recorded outcome for this compound: CC1(C)[N+]([O-])=[N+]([O-])C1(C)O (stereo not given)
no

Called result for "NCCCN1CCN(CCCNc2ccc3nnn4c5ccccc5c(=O)c2c34)CC1"
no

Identify the outcome logged in this assay for the compound shown: C[C@@H](c1ccccc1)N1CN(C(=O)OCc2ccccc2)C(CO)C1=O (stereo not given in full)
no

Each compound tested received a call. Report the one for "CC1(C)N=C(N)N=C(N)N1c1cccc(OCCOc2ccc([N+](=O)[O-])cc2)c1" .
no

Identify the outcome logged in this assay for the compound shown: "COC(=O)/C=C(/C(=O)OC)c1c(C)c(C)c2c(C)cc(C)cc(C)c1-2"
no

Called result for NC(CCc1nc(-c2ccccc2)cs1)C(=O)O (stereo not given)
no

What outcome does the record of this test show for "COc1cc(OC)c(OC)cc1/C=C/c1ccccn1" ?
no

Please share the test call associated with "Cc1ccc(NC(=O)CCC/C(CC(=O)c2ccc(Br)cc2)=N/NC(=O)CC#N)cc1" .
no

Query: recorded result category for COC(=O)C(CCC1C=CN(S(=O)(=O)c2ccc(C)cc2)C1)/N=C/c1ccccc1 (stereo not given) in this test
no

For this compound, state the assay outcome: "CCOC(=O)c1nc2c(Cl)c3ncccc3cc2[nH]c1=O"
no

Could you check what this test reported for "CCOC(=O)/C=C(/C(=O)OCC)n1cnc2c(=O)[nH]c(NC(C)=O)nc21" ?
no

Assay outcome for "COc1c(O)c(OC)c(C(=O)/C=C/c2ccccc2)c(O)c1OC" : what was it?
no

Per the records of this test, what outcome belongs to N#CC(C#N)=C1NC(=O)C(c2ccccc2)C(=O)N1 (stereo not given) ?
no

Please let me know the test result on file for Cc1cccc(C)c1NC(=O)/C(=N/NC(N)=S)C(C)C(=O)c1ccc(Cl)cc1 (stereo not given) .
no

Record lookup: outcome of this test for COc1ccc2c(c1)Oc1cc(O)ccc1[C@H]2c1ccccc1C(=O)NC(C)c1ccccc1 (stereo not given in full) ?
no

Would you mind telling me which call this test gave "Cc1[nH]c(=O)c2oc3cc4ccccc4cc3c2c1C(=O)O" ?
no

# lookup: test call for "CC1CCOc2ccc(cc2)/C=N\c2ccc(cc2)-c2ccc(cc2)/N=C\c2ccc(cc2)OCC1"
no

Which outcome did this test record for the compound "CCOC(=O)/C(C#N)=C1\c2c([nH]c(=S)[nH]c2=O)Oc2ccc3ccccc3c21" ?
no

Could you kindly confirm the outcome this assay logged for "COC(=O)[C@@H](COC(=O)/C=C/c1ccc(OC(C)=O)c(OC(C)=O)c1)NC(=O)/C=C/c1ccc(OC(C)=O)c(OC(C)=O)c1" ?
no

Recorded test call requested for "Cn1c(=O)[nH]c2nccnc2c1=O"
no

How did this test come out for "CCCCCCCCCCCCCCNCC(OCC)OCC" ?
no

Recorded test call requested for "O=C(OC[C@H]1C[C@H]2C(=O)CCC[C@H]2O1)c1ccccc1"
no

Would you mind telling me which call this test gave Cc1ccc(S(=O)(=O)NC2C(=O)c3ccccc3C(=O)C2n2ccnc2)cc1 (stereo not given) ?
no

Hello, I am checking results. What call was entered for "Nc1c(C(=O)O)nnc2cc(Cl)c(Cl)cc12" ?
no

What classification did "CC1=C2C(=O)c3ccccc3C(=O)[C@H]2C[C@@H](N2CCCCCC2=O)O1" end up with in this test?
no

Short answer needed: outcome of this test for "O=S(=O)(O)c1cc(O)c(/N=N/c2ccc(O)cc2O)c2ccccc12" ?
no

Lab log entry: "O=c1cc(/N=N\c2ccc(Cl)c(Cl)c2)[nH]c(=O)[nH]1" — outcome as called in the assay?
yes

For this compound, state the assay outcome: "CC(=O)Nc1ccc(-c2cc(C(=O)O)c3cc4ccccc4cc3n2)cc1"
no

Record lookup: outcome of this test for "O=C(/C=C/c1cccs1)c1ccsc1" ?
no

Assay outcome for "CC(=O)O[C@H]1C[C@H]2[C@@H]([C@H](OC(C)=O)C[C@@H]3CC4(CC[C@@]32C)OOC2(CCCCC2)OO4)[C@@H]2CC[C@H]([C@H](C)CCC(=O)O)[C@@]12C" : what was it?
no

Recorded call for O=C1CC(NC(=O)C(F)(F)F)c2c1csc2Br (stereo not given) ?
no

How was NC1=NN(c2ccccc2)C(=O)C1/C(=N\NC(=O)c1cc2ccccc2cc1O)C(=O)Nc1nc([N+](=O)[O-])cs1 (stereo not given) classified in this test?
no

###

Tested on: OVCAR-8
Test method notes: NCI tumour cell line growth inhibition, 48 h
Activity calls are given as the source filed them. No stated cut-off is given here; in the data, active = GI50 up to about 1.1 µM and inactive = higher.
Reported metric: GI50

Need GI50 of "CC1=CC(=O)N(n2c(-c3ccccc3)n[nH]c2=O)C1=O" , thanks.
> 100 µM (inactive)

Requested field: GI50. Item: C=CCc1c(O)c2c(c3oc(=O)cc(C)c13)CC(C)O2 (stereo unspecified)
65.3 µM (inactive)

Reported GI50 for "C/N=C(\N=c1/ss/c(=N\C)n1C)N(C)C.[O-][Cl+3]([O-])([O-])O" : what is it?
97.1 µM (inactive)

Returns the measured GI50 for the input molecule. Input: CC(C)N(C(=O)C12C3C4C5C3C1(C(=O)N(C(C)C)C(C)C)C5C42)C(C)C (stereo unspecified)
> 60.5 µM (inactive)

Query: GI50; subject: "O=C1C(N2CCN(c3ccccn3)CC2)=C(Cl)C(=O)c2ncccc21"
> 4.45 µM (inactive)

Look up GI50: CCC(C)N1CN(c2ccccc2)C2(CCN(CCCC3(c4ccc(F)cc4)OCCO3)CC2)C1=O (stereo unspecified)
7.64 µM (inactive)

###

I'd appreciate it if you could supply GI50 values for the items below.
Test system: LXFL 529
Test method notes: NCI tumour cell line growth inhibition, 48 h
Counter-ions that a name gives are not always drawn. Active and inactive are the calls of the source. No stated cut-off is given here; in the data, active = GI50 up to about 1.1 µM and inactive = higher.

Record request: GI50 value, item CC(NC(C)(C)C)C(=O)c1cccc(Cl)c1 (stereo not drawn) [BUPROPION HYDROCHLORIDE]
> 100 µM (inactive)

I'd like to know its GI50. The compound in question is "CC(=O)/C=C1\CC(=O)Nc2ccccc2N1"
> 100 µM (inactive)

Which GI50 is listed for Nc1ncnc2c1ncn2C1CC(O)C(CO)O1 (stereo not drawn) ?
> 100 µM (inactive)

Return reported GI50; argument: CC(=O)OC1CC2C(C)(C)C(=O)C=C[C@]2(C)C2CCC3(C)C(c4ccoc4)[C@@H](O)[C@H]4O[C@]43[C@]12C (stereo partly drawn)
18.5 µM (inactive)

May I ask what GI50 has been recorded for "O=C(CCc1nnc2s/c(=C\c3ccc(Cl)c(Cl)c3)c(=O)n12)Nc1ccc(Cl)c(Cl)c1" ?
88.1 µM (inactive)

Query (compound): "COc1ccc2cc3[n+](cc2c1OC)CCc1cc(O)c(O)cc1-3" ; field requested: GI50
> 100 µM (inactive)

What value of measured GI50 is listed for "O=C(/C=C/c1ccccc1Cl)c1ccc(Cl)c(Cl)c1" ?
16.1 µM (inactive)

Requested read-out: GI50. Entry: "C[Si](C)(C)c1ccc(-c2sc(-c3ccc([Si](C)(C)C)s3)c3c2C[Si]2(C3)Cc3c(-c4ccc([Si](C)(C)C)s4)sc(-c4ccc([Si](C)(C)C)s4)c3C2)s1"
> 100 µM (inactive)

###

Tested on: RPMI-8226
Test method notes: NCI tumour cell line growth inhibition, 48 h
Calls of active or inactive are those of the source. Cut-off read from the data, not from the text of the source: active = GI50 up to about 1.1 µM and inactive = higher.
Hello, when you answer, please use one of the following outcomes: active, inactive

Just curious, what result did O=C(NC1C=Nc2ccc([N+](=O)[O-])cc2NC1=O)c1cc(Cl)cc([N+](=O)[O-])c1 (centres undefined) get here?
inactive

Recorded test call requested for "O/N=N/c1ccc(-c2ccccc2)cn1"
active

Could you kindly confirm the outcome this assay logged for Cc1[nH]c2ccccc2c1C(=O)CC1(O)C(=O)Nc2ccccc21 (centres undefined) ?
inactive

I'd appreciate the recorded outcome for O=C1C(Cl)C(c2ccccc2)N1n1cnc2ccccc2c1=O (centres undefined) from this test.
inactive

Test call, this compound: "C[Si](C)(C)c1ccc(-c2sc(-c3ccc([Si](C)(C)C)s3)c3c2C[Si]2(C3)Cc3c(-c4ccc([Si](C)(C)C)s4)sc(-c4ccc([Si](C)(C)C)s4)c3C2)s1"
inactive

Per the assay record, what outcome was assigned to "O=C(OC[C@H]1C[C@H]2C(=O)CCC[C@H]2O1)c1ccccc1" ?
inactive

For "CC(=O)c1cn(-c2ccc(Cl)cc2)c(=O)c2c(N)n[nH]c12" , which call appears in the assay record?
inactive

Fill in: this test's call for CCOC(=O)C(C)NC(=O)NC12CC3CC(CC(F)(C3)C1)C2 (centres undefined) is ___
inactive

For "CCOC(=O)/C(C#N)=C1\c2c([nH]c(=S)[nH]c2=O)Oc2ccc3ccccc3c21" , which call appears in the assay record?
inactive

Please state the recorded outcome for this compound: COc1ccc(-n2c(Cn3nnc(-c4cccnc4)n3)nn(C3OC(COC(=O)c4ccccc4)C(OC(=O)c4ccccc4)C3OC(=O)c3ccccc3)c2=S)cc1 (centres undefined)
inactive

What did this assay record as the result for "CC(C)=CCC/C(C)=C\CC/C(C)=C/CO" ?
inactive

Fill in: this test's call for "CC(C)=CCc1[nH]c2ccccc2c1C1=C(O)C(=O)C(c2c(CC=C(C)C)[nH]c3ccccc23)=C(O)C1=O" is ___
inactive

I would be grateful if you could indicate the recorded call for "Nc1cc(-c2ccc(Cl)cc2)nn1-c1nc2ccccc2nc1-c1ccccc1" .
inactive

Identify the outcome logged in this assay for the compound shown: N/N=C1\C(=O)N(C2CCCCC2)C(=O)C1C(=O)NC1CCCCC1 (centres undefined)
inactive

Reference source for all entries: ChEMBL document CHEMBL1201862
